Values from PubChem BioAssay AID256

Tested on: CD2F1 mice, L1210 leukemia ip, survival T/C
Experiment: NCI In Vivo Anticancer Drug Screen. Data for tumor model L1210 Leukemia (intraperitoneal) in CD2F1 (CDF1) mice
Conditions: endpoint: mean survival time; dose: 400.0 mg/kg/injection; schedule: Q04DX003 (ip); vehicle: saline with Tween-80; higher = longer survival
Inconclusive results and toxic doses are left out.
attribute.measured: T/C

compound=CC(=O)Nc1ccc(C(C)=O)cc1 attribute_measured=T/C measured_result="93 % of control"
compound=O=[N+]([O-])c1ccc(/C=C/C=C/c2ccc(Cl)c(S(=O)(=O)F)c2)c(Cl)c1 attribute_measured=T/C measured_result="102 % of control"
compound=COc1ccc(CCNC(=O)/C=C\C(=O)O)cc1OC attribute_measured=T/C measured_result="106 % of control"
compound="CC(=O)C(C(=O)Nc1ccccc1)c1cc(NS(=O)(=O)c2ccccc2)ccc1O (stereo unspecified)" attribute_measured=T/C measured_result="91 % of control"
compound="CC(c1ccccc1)n1cncc1C(=O)N1CCN(C)CC1 (stereo unspecified)" attribute_measured=T/C measured_result="97 % of control"
compound=Cc1cc([N+](=O)[O-])cc(C)c1O attribute_measured=T/C measured_result="100 % of control"
compound=C=Cc1ccc(Oc2ccccc2)cc1 attribute_measured=T/C measured_result="90 % of control"
compound="COC(=O)C(CCCCN)NS(=O)(=O)c1ccccc1 (stereo unspecified)" attribute_measured=T/C measured_result="103 % of control"
compound=CCOC(=O)C(Cc1c[nH]c2ccccc12)(NC(C)=O)C(=O)OCC attribute_measured=T/C measured_result="104 % of control"
compound=N#CN(Cc1ccc(Cl)cc1Cl)C(=O)OCOc1ccc(Cl)cc1 attribute_measured=T/C measured_result="96 % of control"
compound="OC1(c2ccccc2)C(N2CCOCC2)=C(c2ccccc2)c2ccccc21 (stereo unspecified)" attribute_measured=T/C measured_result="95 % of control"
compound="Cc1cc(C)c(C)c(C(O)(C(=O)O)c2ccccc2)c1 (stereo unspecified)" attribute_measured=T/C measured_result="92 % of control"
compound=CC(=O)[C@H]1CC[C@H]2[C@@H]3CC[C@@H]4CC(=O)CC[C@]4(C)[C@H]3CC[C@]12C attribute_measured=T/C measured_result="96 % of control"
compound=O=C(O)Cc1cc2c(cc1I)OCO2 attribute_measured=T/C measured_result="101 % of control"
compound=CCCCCCC(/C=N\N=C\c1ccco1)=C\c1ccccc1 attribute_measured=T/C measured_result="90 % of control"
compound="CCCCCC(=O)C(C)CC (stereo unspecified)" attribute_measured=T/C measured_result="94 % of control"
compound=CC(=O)c1ccc(N=Nc2c(N)nc(N)nc2N)cc1 attribute_measured=T/C measured_result="89 % of control"
compound=O=C(NO)Nc1ccc(Cl)cc1 attribute_measured=T/C measured_result="95 % of control"
compound="COC(=O)C(c1ccccc1)C(SCc1ccccc1)c1ccccc1 (stereo unspecified)" attribute_measured=T/C measured_result="98 % of control"
compound="O=C(O)C(Cl)(Br)C(Cl)c1ccccc1 (stereo unspecified)" attribute_measured=T/C measured_result="103 % of control"
compound=CCCOP(=S)(NCCOC)OCCC attribute_measured=T/C measured_result="103 % of control"
compound=O=C1c2ccccc2C(=O)N1CCO attribute_measured=T/C measured_result="110 % of control"
compound="CC(C)(Cl)S(=O)c1ccccc1 (stereo unspecified)" attribute_measured=T/C measured_result="95 % of control"
compound=O=C([O-])[O-].O=[N+]([O-])O.[Co+3].[NH2-].[NH2-].[NH2-].[NH2-] attribute_measured=T/C measured_result="94 % of control"
compound=C=Cc1ccc(C(N)=O)cc1 attribute_measured=T/C measured_result="96 % of control"
compound="CC1C2C=CC1C(c1c3ccc(=O)cc-3oc3cc(O)ccc13)C2C(=O)O (stereo unspecified)" attribute_measured=T/C measured_result="111 % of control"
compound=CN(C)N=Nc1ccc(S(=O)(=O)Nc2ncccn2)cc1 attribute_measured=T/C measured_result="157 % of control"
compound=COC/C(=N/Nc1ccc([N+](=O)[O-])cc1[N+](=O)[O-])c1ccccc1 attribute_measured=T/C measured_result="100 % of control"
compound="CC(C)(C)NC(=O)CCC(CC(=O)NC(C)(C)C)OCc1ccccc1 (stereo unspecified)" attribute_measured=T/C measured_result="93 % of control"
compound=CCCn1c(O)c(C=N)c(=O)[nH]c1=O attribute_measured=T/C measured_result="94 % of control"
compound=O=C(CC(O)(C(F)(F)F)C(F)(F)F)c1cccc(Cl)c1 attribute_measured=T/C measured_result="110 % of control"
compound=CCOC(=O)C1=C(N)SC(=O)C1 attribute_measured=T/C measured_result="95 % of control"
compound=CCOC(=O)c1c[nH]c2cc(OC)ccc2c1=O attribute_measured=T/C measured_result="100 % of control"
compound=COc1ccc(C(C)=O)cc1[N+](=O)[O-] attribute_measured=T/C measured_result="94 % of control"
compound="O=C1C(c2ccccc2)=C(c2ccccc2)CC1O (stereo unspecified)" attribute_measured=T/C measured_result="103 % of control"
compound=O=C(Nc1ccc2c3c(ccc(C(=O)O)c13)CC2)c1ccccc1 attribute_measured=T/C measured_result="104 % of control"
compound=CC(=O)OCC(COC(C)=O)(COC(C)=O)COC(C)=O attribute_measured=T/C measured_result="93 % of control"
compound=CN(C)C(=O)c1cccc(COc2ccc([N+](=O)[O-])cc2Cl)c1 attribute_measured=T/C measured_result="95 % of control"
compound=Nc1ccc(-c2ccc(N)cc2)cc1 attribute_measured=T/C measured_result="96 % of control"
compound=C(=C1c2ccccc2-c2ccccc21)c1cccnc1 attribute_measured=T/C measured_result="95 % of control"
compound=CCCCCC/C=C\C(=O)O attribute_measured=T/C measured_result="87 % of control"
compound=O=C1CSC(=O)N1 attribute_measured=T/C measured_result="92 % of control"
compound="COC(=O)C1CC2C(CCC3C(C)(C(=O)OC)CCCC23C)C(=O)C1(O)C(C)C (stereo unspecified)" attribute_measured=T/C measured_result="91 % of control"
compound="CCCC(C#N)(CCCl)c1ccccc1 (stereo unspecified)" attribute_measured=T/C measured_result="96 % of control"
compound=Cc1ccc(S(=O)(=O)O)c2c([N+](=O)[O-])cccc12 attribute_measured=T/C measured_result="96 % of control"
compound=CC(=O)c1ccccc1OC(=O)c1ccccc1 attribute_measured=T/C measured_result="104 % of control"
compound="C=CC1C2C=CC(CC2)C1O (stereo unspecified)" attribute_measured=T/C measured_result="104 % of control"
compound=Cc1ccc(SCc2c(COc3ccc(Cl)cc3)sc3ccc(Cl)cc23)cc1 attribute_measured=T/C measured_result="94 % of control"
compound=O=C1c2ccccc2C(=O)N1CCCCCBr attribute_measured=T/C measured_result="100 % of control"
compound=O=c1c2ccccc2sc2cccc(Sc3ccccc3)c12 attribute_measured=T/C measured_result="91 % of control"
compound=CC(/C=C/c1ccccc1)=Nc1ccccc1 attribute_measured=T/C measured_result="106 % of control"

====

Reported T/C values for the following compounds.
Test system: CD2F1 mice, L1210 leukemia ip, survival T/C
Test: NCI In Vivo Anticancer Drug Screen. Data for tumor model L1210 Leukemia (intraperitoneal) in CD2F1 (CDF1) mice
Settings: endpoint: mean survival time; dose: 100.0 mg/kg/injection; schedule: Q01DX009 (ip); vehicle: saline with Tween-80; higher = longer survival
Description: The antitumor activity of compounds was measured in mice bearing transplantable tumors. Survival or tumor size were measured and the results are expressed as the measurement made in the treated group (T) divided by the measurement made in the vehicle treated control group (C). The tumor model used in this assay is L1210 Leukemia (intraperitoneal) in CD2F1 (CDF1) mice
Toxic doses and inconclusive results are not listed.
attribute.measured: T/C

compound="CC(=O)C1CCC2C3=CC=C4CC(OC(=O)CCC(C)C)CCC4(C)C3CCC12C (configuration not stated)" measured_result="105 % of control"
compound=Cc1ccccc1S(=O)(=O)F measured_result="107 % of control"
compound=O=C(O)c1ccccc1C(=O)Nc1ccc(Cl)cc1 measured_result="95 % of control"
compound=CCCCCCSC(=O)Nc1ccc(C)c(NC(=O)SCCCCCC)c1 measured_result="93 % of control"
compound=CC1(C)CC(=O)C=C(OCCc2ccccc2)C1 measured_result="102 % of control"
compound=CC(=O)c1ccc(N=Nc2c(N)nc(N)nc2N)cc1 measured_result="92 % of control"
compound=CC(=O)Nc1ccc(C(C)=O)cc1[N+](=O)[O-] measured_result="91 % of control"
compound=S=C(S)Nc1cccc2ccccc12 measured_result="93 % of control"
compound=COc1ccc(OC)c(C(=O)CCl)c1 measured_result="100 % of control"
compound=COc1ccc(-n2c(=S)[nH]c3ccc(C)cc3c2=O)cc1 measured_result="97 % of control"
compound=[N-]=[N+]=CC(=O)NCC(=O)NNC(=O)c1ccccc1 measured_result="105 % of control"
compound="CCCC(=O)Nc1ccn(C2OC(CO)C(O)C2O)c(=O)n1 (configuration not stated)" measured_result="102 % of control"
